Test system: HepG2
Assay: cytotoxicity call (relative viability < 0.9)
Details: 10 µM
In all, about 39,000 compounds went through this assay and about 3,300 (8.5%) were called active. This is one part of a sample in which actives are shown more often than they occur.
Respond using exactly one of the listed classes: TRUE (active), FALSE (inactive)

1. C[C@H](CO)N1C[C@H](C)[C@@H](CN(C)Cc2ccc(Cl)c(Cl)c2)Oc2ccc(NC(=O)Nc3ccc(C(F)(F)F)cc3)cc2CC1=O: TRUE

Prompt: Status in this test for `C[C@H](CO)N1C[C@H](C)[C@@H](CN(C)C(=O)Nc2ccc3c(c2)OCO3)Oc2ncc(-c3ccncc3)cc2C1=O` ?
Response: FALSE

Prompt: Status in this test for `C[C@H]1CNC(=CC(=O)c2ccccc2)C(=O)N1` ?
Response: FALSE

src = the antibiotic and cytotoxicity screens of Wong et al. (2023)
